biological target: BTK (Homo sapiens); construct: The GM01501.3 cell line endogenously expresses BTK with a HiBiT fusion tag via CRISPR knock-in at its C-terminal region; endogenous in cells; host or cells: GM01501.3 (GM01501 cells engineered by CRISPR knock-in of HiBiT at the BTK locus); test: BTK degradation assay using the HiBiT Method (Nano-Glo HiBiT Lytic Assay, GM01501.3 cells); assay type: cell-based; settings: HiBiT Degradation on GM01501.3 BTK @ 6 hours
Sequence (Q06187 whole entry, the tested form may be a part): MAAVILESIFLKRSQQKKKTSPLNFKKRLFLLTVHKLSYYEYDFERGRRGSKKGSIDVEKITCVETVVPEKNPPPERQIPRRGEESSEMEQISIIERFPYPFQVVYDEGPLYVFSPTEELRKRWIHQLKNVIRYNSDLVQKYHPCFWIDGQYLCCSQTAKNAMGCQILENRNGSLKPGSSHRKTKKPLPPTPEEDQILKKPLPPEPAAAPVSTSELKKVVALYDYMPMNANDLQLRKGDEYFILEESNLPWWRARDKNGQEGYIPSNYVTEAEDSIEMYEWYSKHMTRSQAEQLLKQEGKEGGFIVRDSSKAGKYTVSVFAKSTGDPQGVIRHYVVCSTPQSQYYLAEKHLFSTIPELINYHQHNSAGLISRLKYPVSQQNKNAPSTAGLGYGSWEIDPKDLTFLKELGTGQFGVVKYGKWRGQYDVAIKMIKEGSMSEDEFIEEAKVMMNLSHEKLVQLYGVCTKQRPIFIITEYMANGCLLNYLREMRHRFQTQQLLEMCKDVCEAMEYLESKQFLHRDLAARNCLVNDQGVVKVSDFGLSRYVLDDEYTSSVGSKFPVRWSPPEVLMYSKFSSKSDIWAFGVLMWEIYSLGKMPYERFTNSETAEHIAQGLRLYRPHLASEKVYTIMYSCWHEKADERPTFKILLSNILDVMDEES
observable: DC50

molecule: Cc1cc(-c2ncnn3cc(-c4ccc(C(=O)N[C@H](C)c5cccc(NC6CCC(=O)NC6=O)c5)cc4)cc23)ccc1CNC(=O)c1noc(C(C)(C)C)n1 (stereo partly drawn)
observable: DC50
result: < 100 nM
--
molecule: Cn1nc(N2CCC(=O)NC2=O)c2ccc(C3CCN(Cc4ccc(-c5cc6nccc(-c7ccc(CNC(=O)c8noc(C(C)(C)C)n8)c(F)c7)n6n5)cc4F)CC3)cc21
observable: DC50
result: < 100 nM
--
molecule: Cc1cc(-c2ncnn3cc(CCN4CCC(c5ccc6c(N7CCC(=O)NC7=O)noc6c5)CC4)cc23)ccc1CNC(=O)c1noc(C(C)(C)C)n1
observable: DC50
result: > 1000 nM
--
molecule: Cc1cc(-c2ncnn3cc(-c4ccc(CN5CCC(c6ccc(NC7CCC(=O)NC7=O)cc6)CC5)cc4)cc23)ccc1CNC(=O)c1ncc(C(C)C)cn1 (stereo not drawn)
observable: DC50
result: < 100 nM
--
molecule: Cc1cc(-c2ccnc3sc(CCCCN4CCC(c5ccc(NC6CCC(=O)NC6=O)cc5)CC4)cc23)ccc1CNC(=O)c1noc(C(C)(C)C)n1 (stereo not drawn)
observable: DC50
result: 100 to 500 nM

Need DC50 of Cc1cc(-c2ncnn3cc(-c4ccc5c(c4)CN(CCc4ccc(NC6CCC(=O)NC6=O)cc4)CC5)cc23)ccc1CNC(=O)c1noc(C(C)(C)C)n1 (stereo not drawn) , thanks.
< 100 nM
